Origin of the recorded values: patent US20230233569A1

tested target: KRAS G12C (Homo sapiens, UniProt P01116+P62937, G12C)
Sequence (P01116 1-169 isoform P01116-2 G12C): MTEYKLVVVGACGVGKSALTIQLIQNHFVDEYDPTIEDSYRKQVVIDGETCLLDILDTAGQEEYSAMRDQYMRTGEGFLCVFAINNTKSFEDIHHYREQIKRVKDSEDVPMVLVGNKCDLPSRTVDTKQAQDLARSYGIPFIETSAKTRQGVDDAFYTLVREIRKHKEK
Sequence (P62937 whole entry): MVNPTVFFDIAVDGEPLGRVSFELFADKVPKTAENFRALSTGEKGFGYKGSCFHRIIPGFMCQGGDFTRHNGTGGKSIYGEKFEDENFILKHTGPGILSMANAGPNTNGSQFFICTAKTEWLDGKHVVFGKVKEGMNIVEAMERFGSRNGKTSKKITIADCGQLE
experiment summary: Disruption of BRAF RBD interaction with Ras (FRET / MOA assay, with Cyclophilin A)
Assay type: biochemical
test conditions: read-out: KRAS G12C FRET data, IC50
pIC50: −log10 of the molar value.

compound	pIC50
CO[C@@H](C)c1ncccc1-c1c2c3cc(ccc3n1C)-c1csc(n1)C[C@H](NC(=O)[C@H](C(C)C)N(C)C(C)=O)C(=O)N1CCC[C@H](N1)C(=O)OCC(C)(C)C2 (racemic)	< 5.00
CCn1c(-c2cccnc2[C@H](C)OC)c2c3cc(ccc31)-c1csc(n1)C[C@H](NC(=O)[C@H](C(C)C)N(C)C(=O)N1CC([C@@H](C)NC)C1)C(=O)N1CCC[C@H](N1)C(=O)OCC(C)(C)C2 (atropisomer, axis not shown)	7.00 to 8.00
CCn1c(-c2cnccc2COC)c2c3cc(ccc31)-c1cc(O)cc(c1)C[C@H](NC(=O)[C@H](C(C)C)N(C)C(=O)[C@H]1CCN(C(=O)C(C)C)C1)C(=O)N1CCC[C@H](N1)C(=O)OCC(C)(C)C2	6.00 to 7.00
CCn1c(-c2cccnc2[C@H](C)OC)c2c3cc(ccc31)-c1csc(n1)C[C@H](NC(=O)[C@H](C(C)C)N(C)C(=O)N1CC(N(C)C3CC3)C1)C(=O)N1CCC[C@H](N1)C(=O)OCC(C)(C)C2 (atropisomer, axis not shown)	7.00 to 8.00
CCn1c(-c2cnccc2COC)c2c3cc(ccc31)-c1cc(O)cc(c1)C[C@H](NC(=O)[C@H](C(C)C)N(C)CC(F)(F)F)C(=O)N1CCC[C@H](N1)C(=O)OCC(C)(C)C2	5.00 to 6.00
CCn1c(-c2cccnc2[C@H](C)OC)c2c3cc(ccc31)-c1csc(n1)C[C@H](NC(=O)[C@H](C(C)C)N(C)C(=O)N1CCN(C(=O)CO)CC1)C(=O)N1CCC[C@H](N1)C(=O)OCC(C)(C)C2 (atropisomer, axis not shown)	7.00 to 8.00
CCn1c(-c2cccnc2[C@H](C)OC)c2c3cc(ccc31)-c1csc(n1)C[C@H](NC(=O)[C@H](C(C)C)N(C)C(=O)N1CC(CN(C)C)(OC)C1)C(=O)N1CCC[C@H](N1)C(=O)OCC(C)(C)C2 (atropisomer, axis not shown)	5.00 to 6.00
CCn1c(-c2cccnc2[C@H](C)OC)c2c3cc(ccc31)-c1csc(n1)C[C@H](NC(=O)[C@H](C(C)C)N(C)C(=O)N1CC([C@@H](C)CO)C1)C(=O)N1CCC[C@H](N1)C(=O)OCC(C)(C)C2 (single isomer, unassigned)	7.00 to 8.00
